TEST SYSTEM: rat hepatic microsomal HMG CoA reductase (Rattus norvegicus)
Construct: rat hepatic microsomal HMG CoA reductase activity in vitro; from tissue; host or cells: rat liver microsomes
Sequence (P51639 1-887): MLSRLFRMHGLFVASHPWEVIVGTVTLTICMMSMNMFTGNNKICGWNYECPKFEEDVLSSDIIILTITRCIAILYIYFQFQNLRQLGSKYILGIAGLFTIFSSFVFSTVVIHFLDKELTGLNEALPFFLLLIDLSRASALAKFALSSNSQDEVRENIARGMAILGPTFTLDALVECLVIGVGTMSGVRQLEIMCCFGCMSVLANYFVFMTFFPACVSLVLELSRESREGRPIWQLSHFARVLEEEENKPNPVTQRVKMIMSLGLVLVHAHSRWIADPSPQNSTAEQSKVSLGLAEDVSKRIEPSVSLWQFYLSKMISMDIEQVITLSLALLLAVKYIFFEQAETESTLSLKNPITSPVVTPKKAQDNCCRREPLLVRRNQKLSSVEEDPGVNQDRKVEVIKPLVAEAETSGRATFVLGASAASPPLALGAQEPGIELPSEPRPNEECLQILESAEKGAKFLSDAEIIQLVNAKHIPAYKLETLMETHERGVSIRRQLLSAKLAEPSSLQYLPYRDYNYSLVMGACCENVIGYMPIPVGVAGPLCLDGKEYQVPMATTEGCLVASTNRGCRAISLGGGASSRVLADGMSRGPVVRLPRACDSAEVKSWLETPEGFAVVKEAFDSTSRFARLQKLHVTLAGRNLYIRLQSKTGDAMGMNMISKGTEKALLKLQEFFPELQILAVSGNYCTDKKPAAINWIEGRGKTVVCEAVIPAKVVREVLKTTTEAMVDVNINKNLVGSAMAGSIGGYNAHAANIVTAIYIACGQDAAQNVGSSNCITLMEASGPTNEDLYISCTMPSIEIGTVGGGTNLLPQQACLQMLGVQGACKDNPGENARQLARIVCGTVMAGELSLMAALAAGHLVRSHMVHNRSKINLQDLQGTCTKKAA
ASSAY NAME: inhibition of rat hepatic microsomal HMG CoA reductase activity in vitro
Format: biochemical
CONDITION DETAILS: 0.74 micrograms/ml
Classify by measured inhibition at 0.74 µg/mL: Y if it is equal to or exceeds 60%, N if it is smaller.

| COMPOUND | CLASS LABEL |
| --- | --- |
| CC(C)c1c(/C=C/[C@@H](O)C[C@H](O)CC(=O)O)c(-c2ccc(F)cc2)c2c3ccccc3cnn12 (relative stereo) | N |
| CC(C)c1c(/C=C/C(O)CC(O)CC(=O)O)c(-c2ccccc2)c2c3ccccc3cnn12 (stereo not drawn) | N |
| CCOC(=O)C[C@H](O)C[C@H](O)/C=C/c1c(-c2ccc(F)cc2)c2c3ccccc3cnn2c1C(C)C (relative stereo) | Y |
| CC(C)c1c(/C=C/C(=O)CC(O)CC(=O)O)c(-c2ccc(F)cc2)c2c3ccccc3cnn12 (stereo not drawn) | N |
| CC(C)c1c(/C=C/C(O)CC(O)CC(=O)O)c(-c2ccc(F)cc2)c2c3ccccc3cnn12 (stereo not drawn) | Y |
| CC(C)c1c(/C=C/[C@@H](O)C[C@@H](O)CC(=O)O)c(-c2ccc(F)cc2)c2c3ccccc3cnn12 (relative stereo) | Y |

----------
TEST SYSTEM: rat hepatic microsomal HMG CoA reductase (Rattus norvegicus, UniProt P51639)
Construct: rat hepatic microsomal HMG CoA reductase activity in vitro; from tissue; host or cells: rat liver microsomes
Sequence (P51639 1-887): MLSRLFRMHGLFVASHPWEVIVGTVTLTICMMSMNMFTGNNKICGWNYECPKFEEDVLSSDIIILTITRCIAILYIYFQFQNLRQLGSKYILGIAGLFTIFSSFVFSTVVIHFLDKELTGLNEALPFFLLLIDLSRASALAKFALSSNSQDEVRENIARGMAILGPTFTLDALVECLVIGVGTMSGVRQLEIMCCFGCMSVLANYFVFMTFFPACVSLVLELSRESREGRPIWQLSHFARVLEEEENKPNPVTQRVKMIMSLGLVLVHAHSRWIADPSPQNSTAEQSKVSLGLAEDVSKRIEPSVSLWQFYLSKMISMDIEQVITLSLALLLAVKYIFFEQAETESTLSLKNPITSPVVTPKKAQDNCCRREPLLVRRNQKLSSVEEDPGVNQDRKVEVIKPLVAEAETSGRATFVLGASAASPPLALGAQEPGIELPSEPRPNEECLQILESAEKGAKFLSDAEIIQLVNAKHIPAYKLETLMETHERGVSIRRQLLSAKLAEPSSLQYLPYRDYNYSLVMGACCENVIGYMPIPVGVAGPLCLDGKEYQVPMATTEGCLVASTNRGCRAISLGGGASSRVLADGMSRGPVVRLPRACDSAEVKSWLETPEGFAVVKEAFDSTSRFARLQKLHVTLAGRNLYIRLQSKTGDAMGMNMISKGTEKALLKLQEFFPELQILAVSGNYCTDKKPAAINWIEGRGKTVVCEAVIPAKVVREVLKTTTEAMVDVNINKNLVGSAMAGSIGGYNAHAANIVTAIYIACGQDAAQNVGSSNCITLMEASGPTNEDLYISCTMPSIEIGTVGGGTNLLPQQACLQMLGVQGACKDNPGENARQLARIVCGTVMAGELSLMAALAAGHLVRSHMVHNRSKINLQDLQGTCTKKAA
ASSAY NAME: inhibition of rat hepatic microsomal HMG CoA reductase activity in vitro
Format: biochemical
CONDITION DETAILS: 6.66 micrograms/ml

| COMPOUND | UNIT ANNOTATION | inhibition at 6.66 µg/mL |
| --- | --- | --- |
| CC(C)c1c(/C=C/C(=O)CC(O)CC(=O)O)c(-c2ccc(F)cc2)c2c3ccccc3cnn12 (stereo not shown) | % | 77 |
| CC(C)c1c(/C=C/[C@@H](O)C[C@H](O)CC(=O)O)c(-c2ccc(F)cc2)c2c3ccccc3cnn12 (relative stereo) | % | 85 |
| CC(C)c1c(/C=C/[C@@H](O)C[C@@H](O)CC(=O)O)c(-c2ccc(F)cc2)c2c3ccccc3cnn12 (relative stereo) | % | 98 |
| CCOC(=O)C[C@H](O)C[C@H](O)/C=C/c1c(-c2ccc(F)cc2)c2c3ccccc3cnn2c1C(C)C (relative stereo) | % | 95 |
